// reported inhibition at 50 µM for each item listed
- target.or.test.system: E. coli Topoisomerase IV (Escherichia coli, UniProt P0AFI2+P20083)
- Sequence (P0AFI2 whole entry): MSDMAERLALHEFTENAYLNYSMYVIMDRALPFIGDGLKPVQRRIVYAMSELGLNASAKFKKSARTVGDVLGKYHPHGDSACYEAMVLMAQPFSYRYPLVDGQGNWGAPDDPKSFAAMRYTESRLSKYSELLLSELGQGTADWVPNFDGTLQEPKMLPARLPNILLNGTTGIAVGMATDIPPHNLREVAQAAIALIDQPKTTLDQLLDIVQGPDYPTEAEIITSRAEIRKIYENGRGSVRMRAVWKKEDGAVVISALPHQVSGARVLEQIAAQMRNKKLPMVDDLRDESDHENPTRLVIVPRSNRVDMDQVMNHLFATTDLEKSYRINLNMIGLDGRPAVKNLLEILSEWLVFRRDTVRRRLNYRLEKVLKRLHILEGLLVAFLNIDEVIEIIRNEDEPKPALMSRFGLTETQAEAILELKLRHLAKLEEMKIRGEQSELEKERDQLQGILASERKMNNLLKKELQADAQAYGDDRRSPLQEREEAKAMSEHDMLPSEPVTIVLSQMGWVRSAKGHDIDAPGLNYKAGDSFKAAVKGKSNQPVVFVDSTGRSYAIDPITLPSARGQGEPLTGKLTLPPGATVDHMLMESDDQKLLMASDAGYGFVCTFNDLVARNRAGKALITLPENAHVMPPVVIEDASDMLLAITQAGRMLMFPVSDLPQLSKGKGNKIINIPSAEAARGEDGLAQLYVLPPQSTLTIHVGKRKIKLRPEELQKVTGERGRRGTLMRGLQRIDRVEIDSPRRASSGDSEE
- Sequence (P20083 whole entry): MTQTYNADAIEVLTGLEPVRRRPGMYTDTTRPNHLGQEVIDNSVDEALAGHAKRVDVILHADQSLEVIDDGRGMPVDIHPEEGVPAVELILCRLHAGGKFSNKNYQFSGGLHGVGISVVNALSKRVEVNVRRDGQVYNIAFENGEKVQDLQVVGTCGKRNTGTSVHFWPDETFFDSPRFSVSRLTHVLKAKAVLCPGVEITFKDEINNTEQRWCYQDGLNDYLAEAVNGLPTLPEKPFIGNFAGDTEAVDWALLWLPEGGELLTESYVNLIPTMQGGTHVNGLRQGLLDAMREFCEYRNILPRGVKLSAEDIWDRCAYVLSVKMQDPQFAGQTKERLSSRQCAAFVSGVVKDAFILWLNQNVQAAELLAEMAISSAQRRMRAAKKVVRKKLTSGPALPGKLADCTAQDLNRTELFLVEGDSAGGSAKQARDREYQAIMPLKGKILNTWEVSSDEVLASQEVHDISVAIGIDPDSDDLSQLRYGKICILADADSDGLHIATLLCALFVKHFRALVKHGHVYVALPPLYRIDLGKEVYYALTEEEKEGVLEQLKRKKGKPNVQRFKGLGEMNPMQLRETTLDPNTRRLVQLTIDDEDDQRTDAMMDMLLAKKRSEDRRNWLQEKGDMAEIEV
- measurement.notes: biochemical
- setup.conditions: read-out: % inhibition Topo IV
# value in %; strip the unit string

1. COc1cnc2ncc(=O)n([C@H]3CC[C@@H](NCc4cc5c(=O)oc6ccc(F)cc6c5[nH]4)CC3)c2c1	97
2. COc1ccc2ccc(=O)n(C3CCN(CCc4cc5c(=O)oc6ccc(F)cc6c5[nH]4)CC3)c2n1	100
3. O=c1oc2ccc(F)cc2c2[nH]c(CN[C@H]3CC[C@H](n4c(=O)ccc5ccc(F)cc54)CC3)cc12	100
4. O=c1oc2ccc(F)cc2c2[nH]c(CN[C@H]3CC[C@H](n4c(=O)cnc5ncc(F)cc54)CC3)cc12	100
5. N#Cc1cnc2c(c1)N([C@H]1CC[C@H](NCc3cc4c(=O)oc5ccc(F)cc5c4[nH]3)CC1)C(=O)CO2	100
6. COc1cnc2ccc(=O)n([C@H]3CC[C@@H](NCc4cc5c(=O)oc6ccc(F)cc6c5[nH]4)CC3)c2c1	100
7. COc1ccc2ncc(=O)n([C@H]3CC[C@H](NCc4cc5c(=O)oc6ccc(F)cc6c5[nH]4)CC3)c2n1	100
8. COc1ccc2ncc(=O)n([C@H]3CC[C@H](NCc4cc5c(=O)oc6ccc(F)cc6c5[nH]4)CC3)c2c1	100
9. O=C1COc2ncc(F)cc2N1[C@H]1CC[C@H](N(CCO)Cc2cc3c(=O)oc4ccc(F)cc4c3[nH]2)CC1	50

Would you kindly look at the next entry?
Q: Given the entry O=c1oc2ccc(F)cc2c2[nH]c(CN[C@H]3CC[C@@H](n4c(=O)cnc5ncc(F)cc54)CC3)cc12 , report its measured inhibition at 50 µM.
A: 86

The measured values listed here are drawn from patent US10633366B2.
